- TEST: soluble on expression in E. coli; label from the status in PepcDB or PDB records
PROPERTY: soluble on expression in E. coli

>  <RESIDUES>
MITQRQNAILNLIVEMFTRTHEPVCSKALQDSIDSSSATIRNDMAKLEKMGYLEKAHISSGRMPSRAGFQYFVANSLNLDTIDEQDVYQVVKAFDFEAFKLEDILDAAAKLLAEMTGCTAVIQDVEPTKQRLTGFEIVQLSNHDALAVLTLDESKPVTVQFAIPKNFLSSDLEIFHKLVQGRFLGNTVLDIHYRLRTETPQIVQKYFKITDNVLDLFDYIFSHLFKELIFIEGKVASLAYADLKTYQFLDNPQHVALALRSAISDDEVTKISVAESTEEALENVTVMSHKFLIPYRGTALMHVIGPIEMDYRRMVSLVNVISRVLVMKLTDYYRYLNSNHYEVFLSRNVLKNIERGECLD

>  <RESULT>
not soluble

$$$$
>  <RESIDUES>
GPGHMEGLRCVVLPEDLCHKFLQLAESNTVRGIETCGILCGKLTHNEFTITHVIVPKQSAGPDYCDMENVEELFNVQDQHDLLTLGWIHTHPTQTAFLSSVDLHTHCSYQLMLPEAIAIVCSPKHKDTGIFRLTNAGMLEVSACKKKGFHPHTKEPRLFSICKHVLVKDIKIIVLDLR

>  <RESULT>
soluble

$$$$
>  <RESIDUES>
MSLETTHSFGDRAVFAFGKHTGKIFKYAPRVLKDQDPEDLHQLRVGVRRLRTAVIGFMPAVQLPQGITERKIGKIGQQLGVQRDNDVLQEILLHKYLPHLPTSEQGCLEKVLKRLQKERKQAFKATYKLLTHDKFTQFKQSWEIWLEHPHFTSLGGLAIADVLPDLLLPQLSQFFLHPGWLVGTEIDPDTNSSNRQRRCIDLSPTAIETLLDGEESILHDLRKEAKRTRYQMELFSDYFGEEYQQLLAQVKMTQEILGNLQDSFVLRAMVEQYLDVDLKQLCPQWSAIFHGDRLGYWDQWQPLQSQFIDPVYRHHCRQLVQNPLVNSDQPTSSNLEGHHHHHH

>  <RESULT>
soluble

$$$$
>  <RESIDUES>
MDTVNDSFSPGSSRPSPATLSREDCWSEEATFTLIQAWGNRYVDLSRGNLRQKHWQEVANAVNDRHYNTGRNVSAAKSQPYRTDVQCKNRIDTLKKKYKVEKARVSESNPGAYISPWPFFSALDDLLRESFPTSSNPDSTDNIPHQRLSLPMSINPVPVAPRSAIPRRPATSPAIIPHAGDDLLGFRGNLNAFAAAAAAAACPASEDDSEGSRSRSSGRSGSNKKRERKIEKKQGYKEVADAIERLGQIYERVEEKKRKEMVELEKQRMRFAKELECHRMQLFTEMQVRLHKLRRTSGSKGPTSSASAGET

>  <RESULT>
soluble

$$$$

We now examine a further sequence.
Give the reported value of soluble on expression in E. coli for this record: `MGSDKIHHHHHHMWDWIGKLDELRRSNQLAVLVTVTKSSGSTPRKHGAKMIVLPDGTFYGTVGGGTPEYYALEDARACFETMQSTTSSVPLKQRGEFPACGGTMEFYMEVINDNPVLHLFGAGHIGQSLCQILDGTPFRIHLIDEREEWINAPNLPGSVIRHQRHYSDFIEKAIWCDKRTFVAIQTFSGTLDQQVLEEVLPNPTRYVGMIGSKAKWAKVRSNLEEKGLDLSAVRCPIGHDNGGNSPREIAISIASQLLSTYYGRE`
not soluble

====

- TEST: soluble on expression in E. coli; label from the status in PepcDB or PDB records

>  <RESIDUES>
MGSDKIHHHHHHMYNKFKLMAKIYLGPAGVPHSAKKKNTVEGIRTVKELGLNAMEVEFVQGVRMSKETAEETGQVARELGVRLSVHAPYFINLCSEEKEKIEASKQRILDTADRAELMGADAIAIHIAFYGKMTPEECYQNVKEGLEEVIDKAREMGIRNVKFGVETMAKETAFGTLDEVISISKELKGVIPYIDWAHTFARQGGEIDYGKIIDRLIKELGLTHINSHFESLVYRRGKYVDEHIPIDANAPPFEPLAKELLKRDISITLICESPELERDALKMKEVLERLGYRLE

>  <soluble on expression in E. coli>
not soluble

$$$$
>  <RESIDUES>
MTTYTTNDFSEIVFGRKSVRVYDETHKISHEEMLTMIQEATTAPSSVNMQPWRFVVVESEAGKEKLKPLIRFNTRQNETSSAMLLIFGDLNCHERGEEIYNQAYASGKMPKEVRDQQLAAIIPHYESLSREQMNDIVKIDASLAAMQFMLVARAHGYETNPIGGFEAEKLAETFGLDQERYVPVMILSVGKGMETGYESVRLAPEKITTFE

>  <soluble on expression in E. coli>
not soluble

$$$$

====

- TEST: soluble on expression in E. coli; label from the status in PepcDB or PDB records

>  <RESIDUES>
MAVEAVWESARILANSRFAVAFTGAGISAESGIPTFRGKDGLWSRFDPRDLATPEAFNRDPRLVWEWYSWRIERVLAAKPNKAHRLLARLEDSGVLKAVITQNVDGLHRRAGSRRVLELHGNVLRARCTRCGSKLEWREKPSNLPPSCPRCGGVLRPDVVWFGEPLDTSLLEEAFGLARRSDVMIIIGTSGAVDPAGLLPLAAKESGATLINVNPEPNRYSGVADIELRMRAVEFAERLSRAMGIDI

>  <soluble on expression in E. coli>
soluble

$$$$
>  <RESIDUES>
DDIKVAVVGAMSGPIAQWGDMEFNGARQAIKDINAKGGIKGDKLVGVEYDDACDPKQAVAVANKIVNDGIKYVIGHLCSSSTQPASDIYEDEGILMISPGATNPELTQRGYQHIMRTAGLDSSQGPTAAKYILETVKPQRIAIIHDKQQYGEGLARSVQDGLKAANANVVFFDGITAGEKDFSALIARLKKENIDFVYYGGYYPEMGQMLRQARSVGLKTQFMGPEGVGNASLSNIAGDAAEGMLVTMPKRYDQDPANQGIVDALKADKKDPSGPYVWITYAAVQSLATALERTGSDEPLALVKDLKANGANTVIGPLNWDEKGDLKGFDFGVFQWHADGSSTKAK

>  <soluble on expression in E. coli>
soluble

$$$$
>  <RESIDUES>
QPLGGESICSARAPAKYSITFTGKWSQTAFPKQYPLFRPPAQWSSLLGAAHSSDYSMWRKNQYVSNGLRDFAERGEAWALMKEIEAAGEALQSVHEVFSAPAVPSGTGQTSAELEVQRRHSLVSFVVRIVPSPDWFVGVDSLDLCDGDRWREQAALDLYPYDAGTDSGFTFSSPNFATIPQDTVTEITSSSPSHPANSFYYPRLKALPPIARVTLLRLRQSPR

>  <soluble on expression in E. coli>
soluble

$$$$

====

- TEST: soluble on expression in E. coli; label from the status in PepcDB or PDB records
PROPERTY: soluble on expression in E. coli

Past entries and their recorded results:
>  <RESIDUES>
MAYDIFLKIDGIDGESMDDKHKNEIEVLSWRWNIHQESTMHAGSGLGSGKVSVTNLDFDHYIDRASPNLFKYCASGKHIPQAILVMRKAGGNPLEYLKYTFTDLIVAVVSPSGSHDGEIASRETVELSFSTVKQEYVVQNQQGGSGGTITAGYDFKANKEI

>  <RESULT>
not soluble

$$$$
>  <RESIDUES>
MSLDNLITIYDKNDANNLAEHLYDTQGLGALSDWLTATVSNKLNGAEIFQGTYSINGTNADLIVEGRIIQCYVDENRAKQRLRIYYAKTSVIGNTIEVKAEPIFNDIRKSVLNKYDSGTEKITATQAWQNAKVLAKPAIPSQFSFSSLVDTLANVKIEKANFLEFFGGKEGSILDRFHGEFLKDNNTLRHEKSLGTDHKIKAIYTKNLTGLDLEIDAQSVLVGVYPFISSSSEGEDEITLPEEVIFTDYVDDYPAGYVSFVDFKDKATDVATLREAAKDWLKTNIDKQKPQVSGSIELVPLRHQRGYEKFVDLEKVSMGDGVDVYHPQLKVNMSARIVEYTFNVLTNSYDKLVVGNVKTNFLENTENNVSNLINDEGHHHHHH

>  <RESULT>
soluble

$$$$
>  <RESIDUES>
MSEMLNHVASCRLPTEWGVFTMHGFEEANGQEHVALTVGNFSDGNPVLTRIHSECLTGDALFSRKCDCGPQLEAAMRAVQTEGRGIIVYLRQEGRGIGLINKIRAYHLQDQGMDTVEANLALGLPVDARDFRLAQSIYEYLGIRSVKLLTNNPEKIQTLKDAGINVVERIPLHVGENLENKRYLQTKADKLGHLMSE

>  <RESULT>
not soluble

$$$$
>  <RESIDUES>
MSLKTLSDDLYKQFSNFLAVQSGIVLGDNKQYLVKSRLSPLMTQFGIESLSDLVTRAMSVRERDLKMAVVDAMTTNETLWFRDTYPFQLLTDKIFPELGKSGRPIKIWSAASSSGQEPYSIAMTALEQQVKKPGTLPGGVQIVGTDISSTMLNQCKEGVYDSLALARGLSPERKKLFFEPYGDNKMRVVERVRKLTTFRPLNLLESYSLLGKFDIIFCRNVLIYFAPEVKSKILNQFAASLNPGGYLMLGASESLAGLTDRFEMIRCNPGIVYKVKEGHHHHHH

>  <RESULT>
soluble

$$$$
>  <RESIDUES>
MDSGLKALEAVLAIARKGSFRAAALDLGVSTTALSHTVARLEAGLGVRLFHRTTRSVALTEAGREFVARIAPALTEIRAALETVRSQRATPSGMLRINASVQAGRAVAPLVLAFLRRYPEMRVDLVTEGRLLDIVAEGFDMGIRPADLVPRDMIALPLGLPVRHAVVASPDWLVRHPEPRSPADLDPDACLRVRLPNGALLRWPFQKDGVPLPFEASGRLTVDEAAIARAAVLDGAGIGYFIEADVAEDIAAGRMIRLLEDWTPNRPGFSLYYSGRRNPSAGFTAFLAMAREREAA

>  <RESULT>
not soluble

$$$$

Identify measured soluble on expression in E. coli associated with `MGSDKIHHHHHHMSAPLDIDQLQTFVAIADTGSFTKAADRVFKTQSAVSMQMRRLEERIGKPLFMKDGRGNRLTVEGDRLLNFARRMIRLNNEAIASFDDNRLEGTLRIGTPDDYADRYMPEIIVRFAKTHPNVELYIICEPSVDLAEKMAKGDLDIALVTHNPRARASDVVRTEPLCWVSSINHPLPENAPIPLAVGRRDCQWRQAACAALDATGKEYQILFTSWSSTVVAAAVLAGMAVSVLPESALRPGMKVLTLADGFPSLAPVQIGIMKRPGLSPSLSNAITNHITACLDNITPITVNDDLEGDLKGYPRYPRLRQSHMLPGW`
not soluble

Please give the documented soluble on expression in E. coli of `MKFTIMSKGDQSSDTLASTMKEYLLDFGFIMDEKEPDIVISVGGDGTLLYAFHRYYNRLDETAFVGVHTGHLGFYADWLPTEVEKLVIAIAKTPFQVVEYPLLEVIIRYVNGSKESQYLAMNEATVKSAEGTLVTEVEIRGEYFETFRGDGLCISTPSGSTAYNKALGGAIIHPSIEAIQIAEMASINNRVFRTVGSPLVLPKHHTCVLKPAAGMNLQITVDHLTMVHQDVKSIQYRVANEKVRFVRFRPFPFWKRVRDSFVADKLEHHHHHH`
not soluble

Assign soluble on expression in E. coli to the following record: `MSKLFPGEVFANTADFDTGIRQLLPRYDEMLEVICRCLPLTSRRILDLGCGTGELSLKILQRCPDAQVIALDYSPRMLKFAQNKIVASGYKERWTGLQADFGDWAINPETLNIGNEFDACVSSLAIHHLYDEMKLQLFQRIAASLTPNGCFWNADPILPESPTLAEIYQAAREEWVSEQGSNFTEVRAKVGDSSPQGYSNPDQLATLDTHLQMLTKSGFTTVAVPWKYYGLAVFGGWVKLEHHHHHH`
soluble

Write down soluble on expression in E. coli measured for item `MSLELTISELKENFWGEYEYLDGGYMAARLAVLEHLEQIKRQSGIIIIREITEEYFAPVGNWHIRETVRNAMKNRLGKYDNLNLAISEVNKKLKAKINLFELRTINSLINQKSIYDFFKEGHHHHHH`
not soluble

Origin of values: the DeepSol protein solubility set
